Hey, just so you know, these numbers are from patent US20240254222A1.

Biological target: T1, Cyno Semaphorin3A-Sema Domain, TPP-19122 (cynomolgus (Macaca fascicularis), UniProt Q63548 21-569 (rat entry), limits assumed)
T1 construct: produced inhouse
T1 chain: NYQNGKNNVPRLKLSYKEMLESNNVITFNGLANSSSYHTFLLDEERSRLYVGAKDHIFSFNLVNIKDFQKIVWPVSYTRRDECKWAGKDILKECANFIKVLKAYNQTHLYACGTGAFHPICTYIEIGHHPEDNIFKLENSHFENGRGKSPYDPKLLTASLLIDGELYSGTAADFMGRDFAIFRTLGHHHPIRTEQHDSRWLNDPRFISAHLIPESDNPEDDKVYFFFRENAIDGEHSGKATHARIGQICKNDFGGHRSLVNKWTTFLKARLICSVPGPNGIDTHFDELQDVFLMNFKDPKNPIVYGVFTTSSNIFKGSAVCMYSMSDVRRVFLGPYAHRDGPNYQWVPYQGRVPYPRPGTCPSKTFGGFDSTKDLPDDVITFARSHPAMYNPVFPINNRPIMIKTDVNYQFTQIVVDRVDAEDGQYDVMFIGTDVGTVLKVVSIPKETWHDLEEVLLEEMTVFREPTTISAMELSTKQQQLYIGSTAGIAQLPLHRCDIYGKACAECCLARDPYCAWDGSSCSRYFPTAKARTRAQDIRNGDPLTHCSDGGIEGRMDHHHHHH
Experiment: SPR, captured antibody, Sema3A domain analyte
Quantity kind: Binding Activity [%] (%)
Report the value in % with no unit label.

// worked examples, Binding Activity [%] included
# Binder, Units, Endpoint value
records = [
    ("TPP-17755 (antibody, human IgG1, lambda, V domains shown, also called Samsung; Samsung Prior Art F11) VH: EVQLLESGGGLVQTGGSLRLSCAASGFTFSDYAMSWVRQAPGKGLEWVSWIYYDSGSKYYADSVKGRFTISRDNSKNTLYLQMNSLRAEDTAVYYCAKLNGDFDYWGQGTLVTVSS VL: QSVLTQPPSASGTPGQRVTISCSGSSSNIGNNDVSWYQQLPGTAPKLLIYADSHRPSGVPDRFSGSKSGTSASLAISGLRSEDEADYYCGAWDSSLSGYVFGGGTKLTVLG", "%", 53),
    ("TPP-30789 (antibody, human IgG1, kappa, V domains shown, prior art, WO 2020/225400; also called BI clone II; Böhringer (BI) Clone II) VH: EVQLVESGGGLVQPGGSLRLSCAASGFPFSSYYMSWVRQAPGKGLEWVSTIIKSGGYAYYPDSVKDRFTISRDNSKNTLYLQMSSLRAEDTAVYYCVRGGQGAMDYWGQGTTVTVSS VL: EIVLTQSPATLSLSPGERATLSCRASQSIGDYLHWYQQKPGQAPRLLIKYASQSISGIPARFSGSGSGTDFTLTITSLEPEDFAVYYCQQGYSFPYTFGGGTKLEIKR", "%", 103),
    ("TPP-30788 (antibody, human IgG1, kappa, V domains shown, prior art, WO 2020/225400; also called BI clone I; Böhringer (BI) Clone I) VH: EVQLVESGGGLVQPGGSLRLSCAASGFTFSSYYMSWVRQAPGKGLEWVSTIIKSGGYAYYPDSVKDRFTISRDNSKNTLYLQMSSLRAEDTAVYYCVRGGQGAMDYWGQGTTVTVSS VL: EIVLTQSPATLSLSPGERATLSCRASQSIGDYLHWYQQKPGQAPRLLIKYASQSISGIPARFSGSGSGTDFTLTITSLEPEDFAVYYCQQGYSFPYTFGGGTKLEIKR", "%", 107),
    ("TPP-15374 (antibody, human IgG1, lambda, V domains shown, human IgG1; also called IgG1, hit from panning; parental mAb) VH: EVQLLESGGGLVQPGGSLRLSCAASGFTFSSYEMNWVRQAPGKGLEWVSGISWNSGSIGYADSVKGRFTISRDNSKNTLYLQMNSLRAEDTAVYYCARSGYSSSWFDPDFDYWGQGTLVTVSS VL: QSVLTQPPSASGTPGQRVTISCTGSSSNIGAGYDVHWYQQLPGTAPKLLIYGNSNRPSGVPDRFSGSKSGTSASLAISGLRSEDEADYYCSSYAGSNPYVVFGGGTKLTVLG", "%", 104),
    ("TPP-30790 (antibody, human IgG1, kappa, V domains shown, prior art, WO 2020/225400; also called BI clone III; Böhringer (BI) Clone III) VH: EVQLVESGGGLVQLGGSLRLSCAASGFTFSSYYMSWVRQAPGKGLEWVSTIIKSGGYAYYPDSVKDRFTISRDNSKNTLYLQMNSLRAEDTAVYYCVKGGQGAMDYWGQGTTVTVSS VL: EIVLTQSPATLSLSPGERATLSCRASQSIGDYLHWYQQKPGQAPRLLIYYASQSISGIPARFSGSGSGTDFTLTISSLEPEDFAVYYCQQGYSFPYTFGGGTKLEIKR", "%", 92),
]

Please turn your attention to the following entry.
Report Binding Activity [%] for TPP-30791 (antibody, human IgG1, kappa, V domains shown, prior art, WO 2020/225400; also called BI clone IV; Böhringer (BI) Clone IV) VH: EVQLVESGGGLLQLGGSLRLSCAASGFTFSSYYMSWVRQAPGKGLEWVSTIIKSGGYAYYPDSVKDRFTISRDNSKNTLNLQMNSLRAEDTAVYYCVKGGQGAMDYWGQGTTVTVSS VL: EIVLTQSPATLSLSPGERATLSCRASQSIGDYLHWYQQKPGQAPRLLIKYASQSISGIPARFSGSGSGTDFTLTISSLEPEDFAVYYCQQGYSFPYTFGGGTKLEIKR please.
107
